Ref: PubChem BioAssay AID1508600

assay-remarks: Components of the Cytosolic LPS Sensing Pathway: Gene Identification via Genome-wide siRNA Screen
conditions: RAW264.7 macrophages, IL-1a HTRF, actives lie on both sides, screened at 100 nM (by protocol), cells primed 5 h with Pam3CSK4 first
In all, about 53,000 sequences went through this assay and about 3,700 (7%) were called active. Many of the other results were omitted from the sample, so actives are more common in it than they were.
measurement-kind: z-score

Study these solved cases before continuing.
GGACAAGACCAGCAAAUACTT against Six6 ... -1.58 (inactive)
GGAAUGAGCUGAAUGCAAATT against Psmc5 ... -2.08 (active)
GGACAAAUUUGCAUAGAUUTT against Rab10os ... 2.93 (active)
UACUUAGGCCCUUGAGCAUTT against Timm10 ... 0.725 (inactive)

Items follow; give z-score for each.
1. GCCGAGCAGAUGUACAGAATT against Zfp39
2. GCAGGUCUUACCAGAUCGATT against Thap3
3. GGUUCUAUAGGGCUCCGAATT against Tmem179b
4. GGUUAUUCUGGCUAUGGGCTT against Taf15
5. GGUGGUUAAAUGGUUUUAATT against Prkg2
6. GCAGUUCAAGUCUUGAAUATT against Olfr934

1: 2.93 (active); 2: -0.765 (inactive); 3: 4.23 (active); 4: -2.22 (active); 5: 1.98 (inactive); 6: -1.09 (inactive)

# batch size: 4; output z-score per entry
1. GGAAGUGGCUUUUUAUCAGTT against Arhgap6
2. CGGUCUUCCCGUGGUUCAATT against Gm5114
3. GGACACGUUUCUGUGUUGUTT against Tspan32
4. GCCUGUUCUCAAGACUGACTT against Sema4a

1: 2.05 (active); 2: -0.992 (inactive); 3: 0.304 (inactive); 4: 2.06 (active)

Would you mind listing z-score for each of the following sequences?
1. GGAGGUCUGGAUUAACUGUTT against Cd163l1
2. GGCUUUAGCAGAUGAGCGATT against Sptbn4
3. GGCUAAUACAUAAAGUAGUTT against 4930515G01Rik
4. GGACCAUGAGACGAUGGGATT against Dysf
5. GCUAUUGGAGAUAUAAUGGTT against Ace

1: 2.2 (active); 2: -0.0568 (inactive); 3: 0.452 (inactive); 4: 0.167 (inactive); 5: 1.58 (inactive)

Batch request: z-score per item, same order as input.
1. CGAUAUCAAGAGUGCAUGATT against Gas6
2. GGCAGACAGUCUAACAGAUTT against Krt6a

1. 2.97 (active)
2. 0.283 (inactive)

====

Would you mind telling me the reported z-score of each entry?
assay-remarks: Components of the Cytosolic LPS Sensing Pathway: Gene Identification via Genome-wide siRNA Screen;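 further: robust z of the log signal after scaling to non-targeting control siRNA wells of the plate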
conditions: RAW264.7 macrophages, IL-1a HTRF, actives lie on both sides, screened at 100 nM (by protocol), cells primed 5 h with Pam3CSK4 first
Among all 53,000 sequences or so, about 3,700 (7%) were called active. Only a selection was taken, and actives are over-represented in it overall.
Numbers only.

Look over these answered cases.
GCUUCUGGUUUUCGGCUAUTT against Sfswap ... 0.427
GGAAUAUGUCACCAACAAGTT against Akap8l ... -0.896
GGAGAAGGUGCUCAAGUUGTT against Henmt1 ... -2.45
GCUGAUGGACUCAAGAAAGTT against Zbed5 ... -0.805
GAACUUUUUUUCUGUGAACTT against Olfr175 ... -1.58

Quick request: z-score for each listed item, please.
1. GGAUAAUUUUGGAAGCAGATT against Rheb
2. GCCGUGUGGUAAUAGUGUCTT against Dhrs13
3. GCACGUAUGCUCUUUCUCATT against Pigw
4. CCUGUAGAUUCAAUUAGAGTT against Vkorc1l1
5. GCACAGUGUAACUUAGGGCTT against Cenpb
6. GGCAACUUUGAAGUCUUGATT against Dntt

1: -0.299; 2: 0.442; 3: -2.52; 4: -0.206; 5: -0.525; 6: -0.488

Value sought for every listed sequence: z-score.
1. GCGUGUAUACCAGCCUUACTT against Egfl7
2. GGCAGUUCUUAAGUAAUCATT against Fem1al
3. GCUUUUCCGCUUCUACCGGTT against Nrp
4. GGACCUACAUAACAAGCUUTT against Thnsl2
5. GGGCCAAGGAACCUAUUUGTT against Ltbr

1: 0.0437; 2: 0.924; 3: -0.505; 4: 1.83; 5: 0.58

====

assay-remarks: Components of the Cytosolic LPS Sensing Pathway: Gene Identification via Genome-wide siRNA Screen;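 further: robust z of the log signal after scaling to non-targeting control siRNA wells of the plate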
conditions: RAW264.7 macrophages, IL-1a HTRF, actives lie on both sides, screened at 100 nM (by protocol), cells primed 5 h with Pam3CSK4 first
In all, about 53,000 sequences went through this assay and about 3,700 (7%) were called active. Only a selection was taken, and actives are over-represented in it overall.
measurement-kind: z-score
Numbers only.

GGAGAGCUGCAUGAUUUCATT against Efcab2 ... 3.67
GCCAGAAUCUGUUGUGAACTT against Gfpt1 ... 0.0747
CGAACUUCCAAAAAGUUCATT against A430005L14Rik ... -0.498
GGAAAAUGACACAGGUAUCTT against Entpd2 ... -0.103
GCUAGCAAGUGAGAUGGAGTT against Mbd3l1 ... 1.58

Below is a list of sequences. For each, state its recorded z-score.
1. GCCUGUGUGCUGUUGUGUUTT against Krtap5-1
2. GGAAGAUGGGCUAUUUCAUTT against Gabra6
3. GCUGUCCUGCCGUAAUAGATT against Oma1
4. CCUUUGGUGAAGCCUGGAUTT against Kiss1
5. CCUUCGUAGCCUGUAUCAUTT against Myadm

1.33
0.545
-0.619
-0.0609
-0.173

Give one value of z-score per listed sequence.
1. GGGCUGAAGUGAAAACAGCTT against Mmp8
2. GGCCGUGUGCAUCUUUGUGTT against Gpr20
3. GGCCUAGACAUACAUGAAATT against Bnip3l
4. GGGAAAUCAGAUAAAGCCCTT against Myl12a
5. GAUUAGCAUCCAUGAACACTT against Tcl1b2

1. -0.523
2. 1.43
3. 2.93
4. 0.874
5. 2.16

Parameters: items (list). Returns: z-score for each item.
1. GGACAAUACGGAGAAAGAUTT against Mdfic
2. GGACGUGACUCUCAUCAUCTT against Atp2b3
3. GGAAAACUAACCAAAAUAGTT against F3
4. GCACGAUGUACCUGAAUCUTT against Ifitm5
5. GGAUCAAGGAGGAUUUCAATT against Tprg

-0.522
0.929
1.45
0.387
2.38

Hi there! I need z-score for each item below, if you can.
1. CGGGCAGCUAGAUUUCCAATT against S100a11
2. GGUCAUAGAGACAGACUACTT against Lcn12
3. GGAUGGCAGCUUUGACCUUTT against Cdc42ep2
4. CGUGCUACAGAUGCGUCAUTT against Exoc8
5. GGAAUGGACCUCAAAAUUGTT against Vmp1

[2.86, -0.378, 0.566, 0.783, 0.532]

====

assay-remarks: Components of the Cytosolic LPS Sensing Pathway: Gene Identification via Genome-wide siRNA Screen;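 further: robust z of the log signal after scaling to non-targeting control siRNA wells of the plate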
conditions: RAW264.7 macrophages, IL-1a HTRF, actives lie on both sides, screened at 100 nM (by protocol), cells primed 5 h with Pam3CSK4 first
The whole screen tested about 53,000 sequences, of which about 3,700 (7%) were called active. The entries come from a sample that favours actives as a whole.
Rule: z-score below -0.4 gives Y, anything at or above gives N.

Take a look at these entries with their results.
GCCAACAAUAUAAUUCAAGTT against Abca5 ... N
GGGUUUCUGACCCUUGGUUTT against Vmn1r220 ... Y
GGGACUAGACUUCUUCGGATT against Ddx52 ... N
GGGUGAAGAGAGAUGAAAATT against Krt82 ... N
GGAAACAUUAGAAUCUUGUTT against Lin52 ... Y

z-score strictly < -0.4 for this sequence? ACCCUUUUGUUUACACUCUTT against Olfr763 Y

Check if z-score falls below -0.4 for GCGACGGAAGUCUUUAUUATT against Nostrin . N

====

Exercise: state measured z-score for each of the sequences provided.
assay-remarks: Components of the Cytosolic LPS Sensing Pathway: Gene Identification via Genome-wide siRNA Screen;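 further: robust z of the log signal after scaling to non-targeting control siRNA wells of the plate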
conditions: RAW264.7 macrophages, IL-1a HTRF, actives lie on both sides, screened at 100 nM (by protocol), cells primed 5 h with Pam3CSK4 first
Out of some 53,000 sequences screened, about 3,700 (7%) were called active. Many of the other results were omitted from the sample, so actives are more common in it than they were.
Answers are plain numbers.

CCUCAUGUCUACAAAGUUATT against Gvin1 ... -1.14
GGCUCUCUGUCUGGAAAAGTT against Vcan ... -1.25
GGUUUCGUAUAAAUUCUCUTT against Ank ... 1.53
GGCUGCAUCUAUAACAUAATT against Olfr611 ... -0.767
CAUUUACAUUCUUAUUACCTT against Olfr473 ... -1.43

For each entry beneath this line, provide reported z-score.
1. GGCUUAAUGUUGCUUCAGATT against Aven
2. GGAAUGAAAAACCUACAUGTT against Cxcl13
3. GCAAAACCUAACUAUGUUUTT against Mterf3
4. GGCCUUUGUACAGGACCCATT against Tor2a
5. CCAAAUUCAUUCUAGCUCGTT against Klf6
6. CCCUAUCUUCAGGCCAUUGTT against Gm10283

[-0.959, 0.453, -0.879, -1.01, -0.597, -1.97]

The reported z-score of the sequence GCUGAAAACACACCUAGCATT against Gin1 was 1.19
